System: Bacillus subtilis
test-method-notes: Antibacterial activity against Bacillus subtilis assessed as zone of inhibition at 50 microg/ml by cup plate analysis
Assay type: functional
settings: read-out: IZ
measured-endpoint: zone of inhibition at 50 µg/mL (mm)
Numbers only, in mm.

smiles-code | assay-system | result-value
Nc1nc(-c2ccc(F)cc2)cc(-c2ccsc2)n1 | Bacillus subtilis | 17
Nc1nc(-c2ccsc2)cc(-c2ccc(Cl)cc2Cl)n1 | Bacillus subtilis | 16
CN(C)c1ccc(-c2cc(-c3ccsc3)nc(N)n2)cc1 | Bacillus subtilis | 15

Would you kindly look at the next entry?
Please report zone of inhibition at 50 µg/mL for the following molecule: CC1(C)S[C@@H]2[C@H](NC(=O)Cc3ccccc3)C(=O)N2[C@H]1C(=O)O
25

###

System: Bacillus subtilis
test-method-notes: Antibacterial activity against Bacillus subtilis ATCC 465 assessed as reduction in bacterial growth measured after 24 hrs by Mueller-Hinton broth assay
Assay type: functional
Kindly supply the reported MIC values for the records listed here.
Numbers only, in µg/mL.

The cases that follow already have their MIC on record.
smiles-code | MIC, µg/mL
N#Cc1nc2[nH]c(=O)[nH]c(=O)c2c(-c2ccccc2)c1N | 2
N#Cc1nc2[nH]c(=O)[nH]c(=O)c2c(-c2c(Cl)cccc2Cl)c1N | 4
Cc1ccc(-c2c(N)c(C#N)nc3[nH]c(=O)[nH]c(=O)c23)cc1 | 2
N#Cc1nc2[nH]c(=O)[nH]c(=O)c2c(-c2ccc(Cl)cc2)c1N | 8

Would you kindly look at the next entry?
Please report MIC for the following compound: O=C(N[C@H](CO)[C@H](O)c1ccc([N+](=O)[O-])cc1)C(Cl)Cl
4

###

Test system: Proteus vulgaris
test-method-notes: Antibacterial activity against Proteus vulgaris assessed as zone of inhibition at 50 microg/ml by cup plate analysis
Format: functional
settings: read-out: IZ
measured-endpoint: zone of inhibition at 50 µg/mL (mm)
Numbers only, in mm.

smiles-code | measurement-units | zone of inhibition at 50 µg/mL
Nc1nc(-c2ccsc2)cc(-c2ccc(Cl)cc2Cl)n1 | mm | 15
Nc1nc(-c2ccc(F)cc2)cc(-c2ccsc2)n1 | mm | 14
CC1(C)S[C@@H]2[C@H](NC(=O)Cc3ccccc3)C(=O)N2[C@H]1C(=O)O | mm | 28

Please report zone of inhibition at 50 µg/mL for the following molecule: CN(C)c1ccc(-c2cc(-c3ccsc3)nc(N)n2)cc1
12

###

System: Streptococcus pyogenes
test-method-notes: Antibacterial activity against Streptococcus pyogenes assessed as inhibition of microbial growth by broth micro-dilution method
Format: functional
measured-endpoint: MIC (µg/mL)
Give bare numbers, in µg/mL.

The cases that follow already have their MIC on record.
smiles-code | measured-endpoint | result-value
CCn1cc(C(=O)O)c(=O)c2cc(F)c(N3CCNCC3)cc21 | MIC | 10
COc1ccc(-c2cc(-c3ccc(Oc4ccccc4)cc3)nc(SCC(=O)Nc3nc4ccc(OC)cc4s3)n2)cc1 | MIC | 50
O=C(O)c1cn(C2CC2)c2cc(N3CCNCC3)c(F)cc2c1=O | MIC | 50

Would you be so kind as to report MIC for each listed record?
1. COc1ccc(-c2cc(-c3ccc(Oc4ccccc4)cc3)nc(SCC(=O)Nc3nc4ccc(S(=O)(=O)O)cc4s3)n2)cc1
2. O=C(N[C@H](CO)[C@H](O)c1ccc([N+](=O)[O-])cc1)C(Cl)Cl

100
50

Provenance of the data: ChEMBL document CHEMBL5532639
